Molecular target: human ether-à-go-go-related gene (hERG) potassium channel (human, UniProt Q12809)
Sequence (Q12809 whole entry, looked up): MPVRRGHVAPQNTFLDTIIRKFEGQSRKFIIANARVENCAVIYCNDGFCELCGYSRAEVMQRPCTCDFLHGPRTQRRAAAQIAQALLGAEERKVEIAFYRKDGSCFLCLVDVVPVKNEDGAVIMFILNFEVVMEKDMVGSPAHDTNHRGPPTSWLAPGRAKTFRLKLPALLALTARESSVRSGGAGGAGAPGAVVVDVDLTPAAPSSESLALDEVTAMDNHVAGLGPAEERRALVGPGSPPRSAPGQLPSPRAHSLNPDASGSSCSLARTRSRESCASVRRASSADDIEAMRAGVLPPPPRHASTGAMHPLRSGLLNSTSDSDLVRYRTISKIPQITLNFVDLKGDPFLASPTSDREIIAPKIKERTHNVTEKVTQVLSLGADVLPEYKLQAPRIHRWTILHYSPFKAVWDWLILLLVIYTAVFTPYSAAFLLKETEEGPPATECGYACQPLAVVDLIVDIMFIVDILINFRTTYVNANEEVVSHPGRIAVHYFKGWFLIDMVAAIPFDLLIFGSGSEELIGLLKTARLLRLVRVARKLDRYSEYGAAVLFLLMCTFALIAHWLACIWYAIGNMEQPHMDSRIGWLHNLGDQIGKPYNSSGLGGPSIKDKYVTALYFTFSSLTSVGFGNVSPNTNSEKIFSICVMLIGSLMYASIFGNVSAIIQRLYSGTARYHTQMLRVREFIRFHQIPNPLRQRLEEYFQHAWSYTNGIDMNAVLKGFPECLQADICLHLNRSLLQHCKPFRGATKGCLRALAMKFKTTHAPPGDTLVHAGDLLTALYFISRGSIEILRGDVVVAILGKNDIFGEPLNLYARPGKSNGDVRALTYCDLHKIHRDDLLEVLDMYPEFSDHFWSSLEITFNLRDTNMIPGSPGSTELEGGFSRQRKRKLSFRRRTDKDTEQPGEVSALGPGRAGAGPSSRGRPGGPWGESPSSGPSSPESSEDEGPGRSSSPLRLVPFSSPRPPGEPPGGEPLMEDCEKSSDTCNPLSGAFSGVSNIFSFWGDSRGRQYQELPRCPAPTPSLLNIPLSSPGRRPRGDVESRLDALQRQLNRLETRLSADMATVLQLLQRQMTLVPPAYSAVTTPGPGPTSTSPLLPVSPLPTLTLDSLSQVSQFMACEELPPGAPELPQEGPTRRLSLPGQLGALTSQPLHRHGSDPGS
Assay: primary screen, population patch clamp on CHO cells stably expressing hERG; higher = less effect of the substance
Hit rate of the full screen: of about 310,000 compounds, about 14,000 (4.5%) showed an effect of 50% or more. The effect is printed as a negative number. The sample as a whole holds a higher share of strong results than the screen did.
The reader will find reported hERG current change (%, negative = inhibition) at 10uM values listed item by item below.
REPORTED_PROPERTY: hERG current change (%, negative = inhibition) at 10uM

INSERT INTO assay_data (molecule, result) VALUES
  ('CCCCCn1c(SCC#N)nc2cc(C(=O)NCC3CCCO3)ccc2c1=O (centres unmarked)', '-52.7%'),
  ('O=C(c1csc2c1CCCC2)N1CCN(c2ccccc2)CC1', '-14.8%'),
  ('CN(C/N=C(\N)N[N+](=O)[O-])S(=O)(=O)c1ccccc1', '19.4%'),
  ('CC(=NCCC1=CCCCC1)c1c(O)n(-c2ccccc2)c(=O)[nH]c1=O', '4.58%'),
  ('COc1ccccc1OCC(O)CN1CCN(CC(=O)Nc2c(C)cccc2C)CC1 (centres unmarked)', '-18.6%'),
  ('CCOC(=O)N1CCC(NC(=O)c2cc3c(=O)[nH]c4ccccc4c3n2C)CC1', '-3.23%'),
  ('Cc1ccccc1OCC(O)CN1CCN(CC(O)COc2ccccc2C)C(C)C1.O=C(O)C(=O)O (centres unmarked)', '-70.8%'),
  ('N#CCSc1nc2ccccc2c(=O)n1CCCC(=O)NCC1CCCO1 (centres unmarked)', '-12.4%'),
  ('COCCNC(=O)Cn1cc2c(n1)CCC(C)C2 (centres unmarked)', '21.2%'),
  ('O=C(Nc1cccnc1)c1c(O)c2c(n(Cc3ccccc3)c1=O)CCCC2', '2.61%'),
  ('Cc1ccccc1OCC(O)CN1CCC(C)CC1.Cl (centres unmarked)', '-34.1%');

---

Target: human ether-à-go-go-related gene (hERG) potassium channel (human);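 note: peak tail current of the secondary pulse compared with the same well before compound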
Assay: primary screen, population patch clamp on CHO cells stably expressing hERG; higher = less effect of the substance
Screen size: about 310,000 compounds; about 14,000 (4.5%) showed an effect of 50% or more. Effects have a minus sign here. This is one part of a sample in which strong results are shown more often than they occur.
The reader will find reported hERG current change (%, negative = inhibition) at 10uM values listed item by item below.
REPORTED_PROPERTY: hERG current change (%, negative = inhibition) at 10uM (%)

INSERT INTO assay_data (molecule, units_text, numeric_value) VALUES
  ('CC(C)CC(=O)Nc1c2c(nn1-c1cccc(Cl)c1)CS(=O)(=O)C2', '%', -40.8),
  ('O=C(c1ccccc1)N1CCC(c2nc3c(nnn3Cc3ccco3)c(=O)[nH]2)CC1', '%', -32.2),
  ('COc1cccc(OC)c1NC(=O)CN1CCC(NC(=O)c2cccc(F)c2)CC1', '%', 1.5),
  ('CCOC(=O)C1=C(COC(=O)COc2ccc(C(=O)CC)cc2)NC(=O)NC1C (centres unmarked)', '%', -25.5),
  ('O=C(Nc1c2c(nn1-c1cccc(Cl)c1)CS(=O)(=O)C2)C1CC1', '%', -66.9),
  ('O=C(Cc1cccs1)N1CCC(c2nc3c(nnn3Cc3ccc(F)cc3)c(=O)[nH]2)CC1', '%', -38.9),
  ('COC(=O)c1ccccc1NC(=O)CN1CCC(NC(=O)c2ccc(C)cc2)CC1', '%', 8.67),
  ('CCN(CC)CCCNC(=O)Cn1cnc2sc(C)c(S(=O)(=O)N3CCC(C)CC3)c2c1=O', '%', 11.1);

---

The reader will find reported hERG current change (%, negative = inhibition) at 10uM values listed item by item below.
Target: human ether-à-go-go-related gene (hERG) potassium channel (human, UniProt Q12809);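 note: peak tail current of the secondary pulse compared with the same well before compound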
Assay: primary screen, population patch clamp on CHO cells stably expressing hERG; higher = less effect of the substance
In all, about 310,000 compounds went through this assay and about 14,000 (4.5%) showed an effect of 50% or more. The effect is printed as a negative number. Many of the other results were omitted from the sample, so strong results are more common in it than they were.
REPORTED_PROPERTY: hERG current change (%, negative = inhibition) at 10uM (%)

INSERT INTO measurements (molecule, measured_target, units_text, numeric_value) VALUES
  ('COCCN(Cc1ccccc1)C(=O)c1cccc(S(=O)(=O)N2CCN(c3ccc(F)cc3)CC2)c1', 'human ether-à-go-go-related gene (hERG) potassium channel (human, UniProt Q12809)', '%', -64.6),
  ('Cc1ccccc1Nc1cc(C(=O)NCC2CCCO2)c2ccccc2n1 (stereo not shown)', 'human ether-à-go-go-related gene (hERG) potassium channel (human, UniProt Q12809)', '%', -15.6),
  ('Cc1ccc(S(=O)(=O)c2cc3c(=O)n4cccc(C)c4nc3n(CC3CCCO3)c2=N)cc1C (stereo not shown)', 'human ether-à-go-go-related gene (hERG) potassium channel (human, UniProt Q12809)', '%', 2.35),
  ('CC1CCC(C(C)C)C(OCC(O)CN2CCCC(C)C2)C1.Cl (stereo not shown)', 'human ether-à-go-go-related gene (hERG) potassium channel (human, UniProt Q12809)', '%', -31.6),
  ('Cn1ccnc1/C(=N\NC(=O)c1ccc(O)cc1)c1cccc([N+](=O)[O-])c1', 'human ether-à-go-go-related gene (hERG) potassium channel (human, UniProt Q12809)', '%', -22.7),
  ('COc1cc(OC)cc(C(=O)N[C@H](C(=O)NCc2ccccc2)C(C)C)c1', 'human ether-à-go-go-related gene (hERG) potassium channel (human, UniProt Q12809)', '%', 7.08),
  ('CN(Cc1ccc(F)cc1)C(=O)c1cccc(S(=O)(=O)N2CCN(c3ccccc3)CC2)c1', 'human ether-à-go-go-related gene (hERG) potassium channel (human, UniProt Q12809)', '%', -19.9),
  ('CC1CC(OCC(O)CN2CCOCC2)CC(C)(C)C1.Cl (stereo not shown)', 'human ether-à-go-go-related gene (hERG) potassium channel (human, UniProt Q12809)', '%', 1.1),
  ('CCCn1nc(C(=O)NCc2ccc3c(c2)OCO3)c2ccccc2c1=O', 'human ether-à-go-go-related gene (hERG) potassium channel (human, UniProt Q12809)', '%', 1.89),
  ('Cc1cccn2c(=O)c3cc(C(=O)NCC4CCCO4)c(=N)n(CC4CCCO4)c3nc12 (stereo not shown)', 'human ether-à-go-go-related gene (hERG) potassium channel (human, UniProt Q12809)', '%', -81.9);

---

The reader will find reported hERG current change (%, negative = inhibition) at 10uM values listed item by item below.
Biological target: human ether-à-go-go-related gene (hERG) potassium channel (human, UniProt Q12809);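 note: peak tail current of the secondary pulse compared with the same well before compound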
Experiment: primary screen, population patch clamp on CHO cells stably expressing hERG; higher = less effect of the substance
The campaign covered roughly 310,000 compounds. About 14,000 (4.5%) showed an effect of 50% or more. The effect is printed as a negative number. For the sample, strong results were picked, then their nearest neighbours and some compounds at random.
REPORTED_PROPERTY: hERG current change (%, negative = inhibition) at 10uM (%)

INSERT INTO results (mol, units_text, numeric_value) VALUES
  ('CN(Cc1c(F)cccc1Cl)S(=O)(=O)c1cccs1', '%', -19.8),
  ('Cc1onc(-c2c(Cl)cccc2Cl)c1C(=O)N1CCc2ccccc21', '%', -19.9),
  ('O=C(OCC(=O)N1CCN(C(=O)c2ccco2)CC1)c1cc(-c2cccc(Br)c2)nc2ccccc12', '%', -19.6);

---

The reader will find reported hERG current change (%, negative = inhibition) at 10uM values listed item by item below.
Molecular target: human ether-à-go-go-related gene (hERG) potassium channel (human);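 note: peak tail current of the secondary pulse compared with the same well before compound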
Assay: primary screen, population patch clamp on CHO cells stably expressing hERG; higher = less effect of the substance
Screen size: about 310,000 compounds; about 14,000 (4.5%) showed an effect of 50% or more. Effects have a minus sign here. The list comes from a sample in which strong results are over-represented; it also holds close analogues and randomly drawn compounds.
REPORTED_PROPERTY: hERG current change (%, negative = inhibition) at 10uM

INSERT INTO assay_data (compound, result) VALUES
  ('Cc1nc2ncnn2c(Nc2ccc3c(c2)OCO3)c1Cc1ccccc1', '-55.1%'),
  ('O=C(O)/C=C\C(=O)O.OCCN1CCN(C2CCC(c3ccc(F)cc3)c3ccc(F)cc32)CC1 (centres unmarked)', '-44.5%'),
  ('COc1ccc(-c2cc(C(=O)N3CCCC3)c3ccccc3n2)cc1', '-2.31%'),
  ('CC(C)CC(C(=O)NC1CCCC1)N(Cc1cccs1)C(=O)c1snc(C(N)=O)c1N (centres unmarked)', '-40.5%'),
  ('CCc1c(C)nc2ncnn2c1Nc1ccc(C)cc1', '-5.65%'),
  ('CSc1ccc2c(c1)C(N1CCN(C)CC1)Cc1ccc(F)cc1S2.O=C(O)/C=C\C(=O)O (centres unmarked)', '-58.8%'),
  ('CCc1c(C)nc2ncnn2c1Nc1ccc(C)c(C)c1', '-17.6%'),
  ('O=C(c1cc(-c2ccccc2)nc2ccccc12)N1CCN(C2CCS(=O)(=O)C2)CC1 (centres unmarked)', '-25%');
